systemName: human 5-HT1A-serotoninergic receptor (Homo sapiens)
Construct: expressed in transfected cells; host or cells: HeLa cells (membranes)
Sequence (P08908 whole entry): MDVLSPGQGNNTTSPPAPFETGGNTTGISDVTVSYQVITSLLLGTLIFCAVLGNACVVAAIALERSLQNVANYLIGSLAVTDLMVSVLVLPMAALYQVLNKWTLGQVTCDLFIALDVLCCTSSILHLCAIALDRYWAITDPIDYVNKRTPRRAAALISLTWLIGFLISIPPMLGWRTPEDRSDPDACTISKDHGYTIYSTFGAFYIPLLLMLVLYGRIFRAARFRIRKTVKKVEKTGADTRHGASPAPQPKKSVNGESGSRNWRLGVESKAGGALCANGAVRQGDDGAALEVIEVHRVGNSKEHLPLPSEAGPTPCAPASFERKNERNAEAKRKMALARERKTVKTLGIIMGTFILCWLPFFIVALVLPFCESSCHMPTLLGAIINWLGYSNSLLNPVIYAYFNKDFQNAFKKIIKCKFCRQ
procedureDetails: Radioligand binding ([3H]8-OH-DPAT) on membranes of HeLa cells expressing cloned 5-HT1A receptor
experimentalContext: human cloned receptor, HeLa cell membranes, 1.2 nM [3H]8-OH-DPAT; read-out: Affinity (Ki) 5-HT1A
Criterion: Ki strictly less than 0.3 µM. Met: Fulfilled. Not met: Not fulfilled.

**Query** is_below(Ki, 0.3 µM) for O=C1CC2(CCCC2)CC(=O)N1CCN1CCN(c2cc(I)ccc2Cl)CC1 ?
**Result** Not fulfilled

**Query** // query: O=C1CC2(CCCCC2)CC(=O)N1CCN1CCN(c2cc(Cl)ccc2Cl)CC1
**Result** Fulfilled

**Query** Moving on to the next compound: Cc1ccc(C)c(N2CCN(CCN3C(=O)CC4(CCCC4)CC3=O)CC2)c1
**Result** Fulfilled

**Query** Same for CN(CCN1C(=O)CC2(CCCC2)CC1=O)CCN(C)c1cc(Cl)ccc1Cl
**Result** Not fulfilled

**Query** // next record O=C1CC2(CCCC2)CC(=O)N1CCN1CCN(c2cc(Br)ccc2Br)CC1
**Result** Fulfilled
